Tested on: M14 melanoma
experiment-notes: NCI tumour cell line growth inhibition, 48 h
Listing of recorded TGI by entry.

Example results:
compound | TGI
Brc1cccc(/C=C/CN2CCN(CCOC(c3ccccc3)c3ccccc3)CC2)c1 | 27.1 µM
CC(C)C(C(=O)O)N(CC1(O)OCC(O)C(O)C1O)N=O (centres undefined) | > 100 µM
COc1ccc2c(c1)C(N)CC2=O (centres undefined) | > 100 µM

Lab note: Cc1ccc(-c2c(C#N)c(-c3ccc(Cl)cc3)c(C#N)c(=O)n2NS(=O)(=O)c2ccccc2)cc1 gave TGI of > 100 µM

Lab note: Cc1[nH]c2ncn3nc(C(Cl)(Cl)Cl)nc3c2c1Cc1ccccc1 gave TGI of > 100 µM

Lab note: CC[C@@H]1C[C@@H]2CN3CCc4c([nH]c5ccc(OC)cc45)C(COC(=O)c4ccc(OC)c(OC)c4)(C2)C13 gave TGI of 41.8 µM

Lab note: CCOP(=O)(OCC)C(NC(=O)OCC(Cl)(Cl)Cl)n1nnc(C(=O)OC)c1C(=O)OC (centres undefined) gave TGI of > 100 µM

Lab note: O=C(Cc1nc2ccccc2s1)C(=O)Nc1ccc(Cl)cc1 gave TGI of > 100 µM

Lab note: CCN1C(=O)C/C(=C\C(C)=O)Nc2ccccc21 gave TGI of > 100 µM

Lab note: CCCCCCCCCCCCN1C(C)=CS/C1=C\C=C\c1scc(C)[n+]1CCCCCCCCCCCC gave TGI of 4.61 µM
